Target: T1, F31L+H93P
T1 chain: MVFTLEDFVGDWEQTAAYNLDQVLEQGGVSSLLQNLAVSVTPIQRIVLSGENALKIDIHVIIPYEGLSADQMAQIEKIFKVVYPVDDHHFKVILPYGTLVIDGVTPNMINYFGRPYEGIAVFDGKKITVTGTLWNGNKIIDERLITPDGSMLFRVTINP
Conditions: modification not given
pKd: −log10 of the molar value.
observed_property: pKd

1) NVSGWRLFKKISN [NLpep78] | 7.76
